pIC50: −log10 of the molar value.
RESULT_TYPE: pIC50

Query the reported pIC50 for VIM-2 (Escherichia coli, UniProt Q5U7L7); item: O=C(O)c1cccc(-c2ccc(F)c(F)c2)n1 [Compound 16]
< 3.70

API: value(readout= pIC50, system= VIM-2 (Escherichia coli, UniProt Q5U7L7), query= O=C(O)c1ccc2ccccc2n1 [Compound 7] )
< 3.70

Find the measured pIC50: item O=C(O)c1ncccc1-c1ccncc1 [Compound 12] , target or system VIM-2 (Escherichia coli, UniProt Q5U7L7).
< 3.70

Record O=C(O)c1ncccc1-c1ccoc1 [Compound 13] : what is its pIC50 with VIM-2 (Escherichia coli, UniProt Q5U7L7)?
< 3.70

Give VIM-2 (Escherichia coli, UniProt Q5U7L7) pIC50 for O=C(O)c1ccccn1 [Compound 1, pyridine-2-carboxylic acid, reference compound]
< 3.70

Param readout= pIC50; system= VIM-2 (Escherichia coli, UniProt Q5U7L7); entry= O=C(O)c1cccnn1 [Compound 10] ; returns value.
< 3.70

---

Give IC50 for every item shown.
- TARGET: NDM-1 (Klebsiella pneumoniae, UniProt C7C422)
- Sequence (C7C422 29-270, looked up, species assumed): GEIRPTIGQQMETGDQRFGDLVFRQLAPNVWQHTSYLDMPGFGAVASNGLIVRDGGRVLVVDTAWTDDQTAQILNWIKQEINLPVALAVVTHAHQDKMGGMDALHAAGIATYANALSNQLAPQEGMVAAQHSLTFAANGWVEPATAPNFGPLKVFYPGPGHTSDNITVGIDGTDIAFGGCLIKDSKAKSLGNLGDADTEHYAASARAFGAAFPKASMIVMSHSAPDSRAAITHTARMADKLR
- ASSAY_COMMENT: biochemical
- Assay type: biochemical
- TEST_CONTEXT: 300 μM imipenem, 10 mM HEPES pH 7.5, 25 °C; average of at least two independent assays; read-out: NDM-1 IC50

What IC50 appears in the records for this molecule with NDM-1 (Klebsiella pneumoniae, UniProt C7C422)? O=C(O)c1ncccc1NS(=O)(=O)Cc1cccc(F)c1 [Compound 36]
> 200 µM

NDM-1 (Klebsiella pneumoniae, UniProt C7C422) / IC50 / CCCCNC(=O)c1cccc(C(=O)O)n1 [Compound 49] : value?
> 200 µM

Record O=C(Cc1c(Cl)cccc1Cl)Nc1cccc(C(=O)O)n1 [Compound 27] : what is its IC50 with NDM-1 (Klebsiella pneumoniae, UniProt C7C422)?
> 200 µM
